- System: MRC-5 cells
- measurement_description: MTT cytotoxicity assay, MRC-5 healthy control cells
- Assay type: cell-based, human
- recorded_conditions: MRC-5, 72 h
pIC50: −log10 of the molar value.

molecule | target | pIC50
N.N.[Cl][Pt][Cl] [CP, Cisplatin, reference compound] | MRC-5 cells | < 4.07

###

- Tested on: HCT-116 cells
- measurement_description: MTT cytotoxicity assay, HCT-116
- Assay type: cell-based, human
- recorded_conditions: HCT-116, 48 h, concentration range 1–100 μM
- Protocol: To examine and compare the antiproliferative activities of four enones, the cytotoxicity of the compounds was assessed by the 3-(4,5-dimethylthiazol-2-yl)-2,5-diphenyltetrazolium bromide (MTT) assay[9] in, colon cancer cells (HCT-116), cervical cancer cell line (HeLa) and human fibroblast lung cell line (MRC-5) that was used as a healthy control cell line. […]

molecule | Cytotoxicity range
COc1cc(/C=C/C(=O)C(C)C)ccc1OCC(=O)O [E2] | 10.87–71.88%
COc1cc(/C=C/C(=O)CC(C)C)ccc1OCC(=O)O | 11.23–75.08%
COc1cc(/C=C/C(C)=O)ccc1OCC(=O)O [E1] | 11.23–72.91%
COc1cc(/C=C/C(=O)C2CC2)ccc1OCC(=O)O | 39.29–68.45%
